Target: androgen receptor (AR-LBD) (Rattus norvegicus)
Construct: 5 μL of 2×AR-LBD/Fluoromone AL Red Complex contained in the kit; purchased Invitrogen
Sequence (P15207 651-882 limits assumed): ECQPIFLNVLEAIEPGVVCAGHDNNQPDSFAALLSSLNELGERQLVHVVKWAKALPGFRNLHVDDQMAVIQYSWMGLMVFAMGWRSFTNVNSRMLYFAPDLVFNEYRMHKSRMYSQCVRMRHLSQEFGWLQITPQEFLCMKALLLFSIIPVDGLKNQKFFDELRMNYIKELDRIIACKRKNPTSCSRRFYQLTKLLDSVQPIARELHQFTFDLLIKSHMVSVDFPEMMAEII
Experiment: Evaluation of androgen receptor affinity (PolarScreen Androgen Receptor Competitor Assay Kit, Red; fluorescence polarization)
Conditions: 22° C. for 5 hours, relative to binding rate of 1 μM DHT, read-out: AR affinity (pEC50) (converted)
Observable: EC50 (nM)

P. Cc1sc(N(Cc2ccccc2)c2ccc(C(F)(F)F)cc2)nc1C(=O)NS(C)(=O)=O
Q. Cc1sc(N(CCc2ccc(OC(F)F)cc2)Cc2ccccc2)nc1C(=O)NS(C)(=O)=O
(Q) I need your help: which of the pair P , Q has higher EC50? Refer to your chosen entry by its label in the reply.
(A) Q
